Parameter GI50: see the listing below.
Test system: HOP-62 NSCLC
Experiment: NCI tumour cell line growth inhibition, 48 h
Parameter Measured: GI50

1. Nc1nc2ccccc2c2[nH]c3ccccc3c12
1130 nM
2. CC/C=C\C[C@H](O)C/C=C1/C(=O)C=C[C@@H]1C/C=C\CCCC(=O)OCCS(=O)(=O)c1ccccc1
3470 nM
3. C=C(c1ccc(OC)c(/C=C/C(=O)c2cc(OC)c(OC)c(OC)c2)c1)c1cc(OC)c(OC)c(OC)c1
2270 nM
4. O=C(NCCN1CCOCC1)Nc1nc2ccc(Sc3nnc4ccc(-c5ccc(F)cc5)nn34)cc2s1
> 20800 nM
5. Cc1cc(N2CCCCC2)nc(NCc2cc(Nc3ccnc4cc(Cl)ccc34)ccc2F)n1
1400 nM
6. CC[C@]12C=CCN3CC[C@@]4(c5ccc(OC)cc5N(C)[C@H]4[C@@](O)(C(=O)OC)[C@@H]1OC(=O)CCCC[P+](c1ccccc1)(c1ccccc1)c1ccccc1)[C@@H]32
2940 nM
